Overview of reported growth inhibition across a group of molecules:
# TEST_METHOD_NOTES: NCI Yeast Anticancer Drug Screen. Data for the mlh1 rad18 strain (AID 175)
# RUN_CONDITIONS: S. cerevisiae mlh1 rad18 strain growth inhibition; at 50.0 µM; hits give high values
The panel holds about 79,000 compounds, 15% with a hit somewhere; the sample as a whole holds those more often.
READOUT_TYPE: growth inhibition (%)

>>> print(df.to_string())
                                    molecule  measure_unit  observed_measurement
 0                     Oc1ccc(CNC2CCCCC2)cc1             %                  46.9
 1     COc1cc2c(cc1O)-c1c(cnn1-c1ccccc1)CCC2             %                  97.6
 2  N#Cc1c(N)nc2c(N=Nc3ccccc3)c(N)nn2c1Nc1ccccc1             %                  76.1
 3  CC(C)(C)OC(=O)c1ccc(NCC2=C(Br)C(=O)C=CC2=O)cc1             %                  89.5
 4  O=S1CCS(=O)C1c1ccccc1 (centres undefined)             %                  37.7
 5                 CCC1(CC)COC(C)(C(=O)O)OC1             %                  -6.2
 6  CC(=O)Nc1ccc(N=C2c3ccccc3-c3ccc(NC(C)=O)cc32)cc1             %                  98.2
 7  CCCC(Sc1ccccc1)c1ccccc1NC(C)=O (centres undefined)             %                  67.5
 8  CCC1CCCN1CCOC(=O)C(c1ccccc1)C1C=CCC1 (centres undefined)             %                    63
 9  c1ccc([CH2][Sn]([CH2]c2ccccc2)([S]c2cccc3cccnc23)[S]c2cccc3cccnc23)cc1             %                  93.5
10  CC(=O)Nc1nc(Cl)c2ncn(C3CC(OC(=O)c4ccc(C)cc4)C(COC(=O)c4ccc(C)cc4)O3)c2n1 (centres undefined)             %                  48.6
11         CCOC(=O)OC(=S)N(C1CCCCC1)C1CCCCC1             %                  60.8
12  CC(C)N(CCO)CC(O)Cn1cnc2c(N)ncnc21 (centres undefined) (tested in a mixture with another compound)             %                    43
13  CC1CCCC(C(O)(C(=O)O)C2CCCC(C)C2)C1 (centres undefined)             %                  69.7
14  N#CC1CCCC(Cc2ccccc2)(c2ccccc2)C1=O (centres undefined)             %                  97.6
15  CCc1cccc(CC)c1Nc1nc2c(s1)C(=O)c1ccccc1C2=O             %                  90.8
16          CCC(CC)C(c1ccc(O)cc1)c1ccc(O)cc1             %                  99.5
17             Cc1nc2c(cnn2-c2ccccc2)c(=O)o1             %                  50.6
18  Cn1c2nc(-[n+]3ccc(-c4ccccc4)cc3)nc-2c([O-])n(C)c1=O             %                  -7.5
19  CCOC(=O)C1=C(Nc2ccc(Br)cc2)OC/C1=N\NC(=O)c1ccccc1O             %                    67
20    O=C(O/N=C(/Cc1ccccc1)c1ccccc1)c1ccccc1             %                  93.2
21                  CCN(CC)CCCCNc1ccc(Cl)cc1             %                  71.6
22                       Oc1ccc2cc(Br)ccc2c1             %                  98.8
23         CC(=O)OCc1cc2ccccc2nc1C(Br)(Br)Br             %                  96.7

----------
# TEST_METHOD_NOTES: NCI Yeast Anticancer Drug Screen. Data for the mec2-1 strain (AID 157)
# RUN_CONDITIONS: S. cerevisiae mec2-1 strain, at 5.0 µM (retest, dose inferred, filed as 0.5), hits give high values
This is part of a sample that, as a whole, favours compounds with a hit. Of some 79,000 tested, about 15% had one in any assay.
READOUT_TYPE: growth inhibition (%)

                                   compound  observed_measurement
0  OCCC1CCN(CC/C=C2/c3ccc(F)cc3Sc3ccc(C(F)(F)F)cc32)CC1                     7
1  CC(C)(C)C(=O)Nc1ccc2c(c1)C(=O)c1ccccc1C2=O                    44
2  CC(C)C1=C(O)C2=C(C(=O)C1=O)C1(C)CCCC(C)(C)C1C(O)C2OC=O (stereo unspecified)                   100
3  CC(C)C1=CC23CCC4C(C)(C(=O)O)CCCC4(C)C2CC1C1C(=O)C=CC(=O)C13 (stereo unspecified)                    81
4  OC(C(=Nc1ccccc1)c1ccccc1)c1ccccc1 (stereo unspecified)                    11
5             c1ccc2c(c1)C[N+]1(CCCCCCC1)C2                     6

----------
# TEST_METHOD_NOTES: NCI Yeast Anticancer Drug Screen. Data for the sgs1 mgt1 strain (AID 161);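 note: 0% = growth of cultures given vehicle only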
# RUN_CONDITIONS: S. cerevisiae sgs1 mgt1 strain, at 50.0 µM, hits give high values
# Description: Growth inhibition of yeast strains with defined genetic alterations is measured as a screen for potential anti-cancer activity. Selected strains with alterations in DNA damage repair or cell cycle control were exposed to compounds and growth inhibition was measured relative to vehicle treated controls. The strain used in this assay is sgs1 mgt1
About 79,000 compounds went through this panel and 15% of them were active in at least one assay; those are over-represented in the sample as a whole.
READOUT_TYPE: growth inhibition (%)

>>> print(df.to_string())
                                   compound  observed_measurement
0  CC1(C)CC(=O)C2=C(C1)Nc1ccccc1CC2c1c[nH]c2ccccc12 (stereo not given)                  5.35
1       COC(=O)Oc1nn(C(=O)OC)c(=O)c2ccccc12                  44.4
2  COc1cc(C(c2cc3c(cc2O)OCO3)N2CCN(C(c3ccc(O)c(OC)c3)c3cc4c(cc3O)OCO4)CC2)ccc1O (stereo not given)                  99.5
3   Cc1ccc(/C=N\NC(=S)N/N=C/c2ccc(C)cc2)cc1                  74.8
4  C=C1CCC[C@@H]2[C@@](C)(CC3=CC(=O)C=CC3=O)C(C)CC[C@]12C (stereo not given in full)                  98.7
5  C[P+](c1ccccc1)(c1ccc(Cl)cc1)c1ccc(Cl)cc1                  71.9
6  O=C1C2=C(C(=O)c3cnccc31)C1C=CC2CC1 (stereo not given)                  10.2
7  COc1ccccc1/C=C1\NC(=S)N(/C=C2\C(=O)Oc3ccccc3C2=O)C1=O                    73
8  CC(/C=C1\CCC(CN(C)C)C1=O)c1cccc(Br)c1 (stereo not given)                  93.5
9  Cc1nc(Nc2ccc(Cl)cc2)sc1C(=O)NNc1ccc([N+](=O)[O-])cc1[N+](=O)[O-]                  90.5

----------
# TEST_METHOD_NOTES: NCI Yeast Anticancer Drug Screen. Data for the rad50 strain (AID 155);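 note: 0% = growth of vehicle-only cultures of the same strain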
# RUN_CONDITIONS: S. cerevisiae rad50 strain growth inhibition; at 50.0 µM (retest, dose inferred, filed as 5.0); hits give high values
Compounds without any hit were thinned out: in the full panel of roughly 79,000, 15% have a hit.
Decide by growth inhibition: equal to or exceeding 60% means condition met, less means condition not met.

In [3]: df
Out[3]:
                                    compound     assigned_class
 0                        CCCCCCCCCCCCCCNCCN  condition not met
 1  C/C(=C\N1CCN(c2ccc(Cl)cc2)C(C)C1)C(=O)c1ccccc1 (stereo unspecified)      condition met
 2  CCNC1(C2c3ccccc3-c3ccccc32)c2ccccc2-c2ccccc21      condition met
 3  CN(C)CCN(C)N=Nc1c(-c2ccc(Cl)cc2)n[nH]c1C(F)(F)F      condition met
 4  Clc1ccc(C2SCc3nc4ccccc4n32)c(Cl)c1 (stereo unspecified)      condition met
 5  CCC(C)OC(=O)c1cccc(C)c1 (stereo unspecified)  condition not met
 6                           COc1cccc(=O)cc1      condition met
 7  CCc1c(O)c(O)c(C(C)=O)c2c(O)c(-c3c(C)cc4c(CC)c(O)c(O)c(C(C)=O)c4c3O)c(C)cc12      condition met
 8    Nc1ccc2ccccc2c1N=Cc1ccccc1[N+](=O)[O-]      condition met
 9  Cc1ccc(C2=C(C#N)C(c3ccccc3)C(C#N)=C(N)O2)cc1 (stereo unspecified)      condition met
10           COc1ccc(-c2noc(=O)c3ccccc23)cc1  condition not met
11  COc1cccc(C=Nc2ccc(I)cc2)c1O.COc1cccc(C=Nc2ccc(I)cc2)c1O.[Co]  condition not met
12  C/C(=N/NC(=O)Nc1ccc(N=Nc2ccccc2)cc1)c1ccccn1  condition not met
13                  CCCCCc1cccc(CC(=O)OCC)n1  condition not met
14  C=CCOC(=O)C(O)C(CC)CCCCC (stereo unspecified)      condition met
15  COc1ccc2c(c1)c(=O)c1c(NCCN(C)C)ccc3nnn2c31  condition not met
16  C=CC(C)(CCC=C(C)C)OC(=O)Nc1ccccc1 (stereo unspecified)  condition not met
17  COc1cc(-c2oc(C=Nc3ccccc3)c([N+](=O)[O-])c2-c2ccc(O)c(OC)c2)ccc1O  condition not met
18  CCOc1ccc2nc([NH-])sc2c1.CCOc1ccc2nc([NH-])sc2c1.CCOc1ccc2nc([NH-])sc2c1.CCOc1ccc2nc([NH-])sc2c1.[Cl][Rh][Cl]  condition not met
19  c1ccc2c3[nH]c(c2c1)=Nc1ccc(cc1)-c1nc2ccc(cc2o1)N=c1[nH]c(c2ccccc12)=Nc1ccc2nc(oc2c1)-c1ccc(cc1)N=3      condition met
20  O=C1C=C(c2ccccc2)O/C1=C/C(=O)c1ccc(Cl)cc1  condition not met
21  COC(CC[P+](c1ccccc1)(c1ccccc1)c1ccccc1)(C(=O)c1ccccc1)c1ccccc1 (stereo unspecified)      condition met
22      Nc1ncc2ccccc2c1-c1ccc(NC(=O)CCCl)cc1  condition not met
23  O=C(/C=C/c1cccc2ccccc12)c1cccc([N+](=O)[O-])c1  condition not met
24  CCN(CC)c1cccc(OC(=O)Nc2cccc(C(F)(F)F)c2)c1      condition met
25  CCN(CC)CCNc1ccc(C)c2oc3ccc(O)cc3c(=O)c12      condition met
26  C=C1C2Oc3ccccc3C1N(c1ccccc1)O2 (stereo unspecified)  condition not met
27              C(=C\c1cnnc2ccccc12)/c1ccco1  condition not met
28        CCOC(=O)[C@@H](F)[C@H](Br)C(=O)OCC      condition met
29  CC(C)C1COC(c2ccc3ccccc3c2-c2c(O[Si](C)(C)C(C)(C)C)ccc3ccccc23)=N1 (stereo unspecified)  condition not met
30       O=C(CC(=O)c1ccccc1)CC(=O)c1ccccc1Br      condition met
31        O=C(CNC(=O)OCc1ccccc1)NNc1ccccc1Cl      condition met
32           CCCCN1C(=O)C(=O)N(c2ccccc2)C1=O  condition not met
33  C=C1CC(C)(COc2ccc3c(C)c(Cl)c(=O)oc3c2)OC1=O (stereo unspecified)      condition met
34  COC(=O)CCC(=O)NCCc1ccc2c([nH]c3ccccc32)c1C  condition not met
35             c1ccc(N=Nc2n[nH]c3ccccc23)cc1      condition met
36          CCOC(=O)/C(C#N)=C\c1cccc2ccccc12  condition not met
37  O=C(c1ccccc1)C(Cl)c1ccccc1 (stereo unspecified)      condition met
38  COc1ccc(OC)c2c1C=C[C@H](C1(C)SCCS1)C2C(C)=O (stereo partly specified)      condition met
39       Cc1ccc(S(=O)(=O)N/N=C/Cc2ccccc2)cc1      condition met
40  CCCCCCC1CCC(CCCCCCCC(=O)N2CCN(C)CC2)C(C/C=C/CCCCCCCC(=O)N2CCN(C)CC2)C1CCCCC (stereo unspecified)      condition met
41        O=C1C=CC(=Nc2cccc3c2-c2ccccc2C3)O1      condition met
42             CC(C)C1=C(O)c2ccccc2C(=O)C1=O      condition met
43         COc1c2c3c(ccnc3c3ccccc13)C(=O)N2C      condition met
44  COc1ccccc1NC(c1ccccc1)c1ccc2cccnc2c1O (stereo unspecified)  condition not met
45   CCCCCCCCCCCCc1ccc(S(=O)(=O)O)cc1.[Zn+2]  condition not met
